Please go through the items and note down their Bliss excess.
system: HuO9 (Osteosarcoma); test: Bliss excess, mean over the matrix (fraction); higher = more synergy;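 note: after 72 h of two-drug dosing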
One number for each entry.

Cn1cnc2c(F)c(Nc3ccc(Br)cc3Cl)c(C(=O)NOCCO)cc21 [Selumetinib] + CC(C)n1c(=O)n(C)c2cnc3cc(F)c(-c4ccc(OCCCN5CCCCC5)nc4)cc3c21 [AZD1390] (first compound max 10 µM, 7x7, partner max 0.3 µM): 0.0143
Cc1c2c(nn1C)CSCc1cc(n(C)n1)CSc1cc(c3ccccc3c1)OCCCc1c(C(=O)O)n(C)c3c-2c(Cl)ccc13 [AZD5991] + C[C@@H](Nc1cc(F)cc(F)c1)c1cc(C(=O)N(C)C)cc2c(=O)cc(N3CCOCC3)oc12 [AZD8186] (first compound max 1 µM, 7x7, partner max 3 µM): 0.0127
CN(C)CCCOc1ccc(-c2ccc3ncc4c(c3c2)n(C2CCOCC2)c(=O)n4C)cn1 [AZD0156] + CCN(CCO)CCCOc1ccc2c(Nc3cc(CC(=O)Nc4cccc(F)c4)[nH]n3)ncnc2c1 [AZD2811] (first compound max 1 µM, 7x7, partner max 1 µM): -0.009

Next:
Enquiry: Please report the measured Bliss excess for COc1cccc2c1C(=O)c1c(O)c3c(c(O)c1C2=O)C[C@@](O)(C(=O)CO)C[C@@H]3O[C@H]1C[C@H](N)[C@H](O)[C@H](C)O1 [Doxorubicin] + Cc1cc2ncnn2cc1Nc1ncc2c(n1)n(C1CCOCC1)c(=O)n2C [AZD7648] (first compound max 1 µM, 7x7, partner max 10 µM)
Return: 0.0731
